Each recorded value in this set is attributed to paper PMC5540273.

# System: PDGFRA;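 further: KINOMEscan kinase panel screen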
# conditionDescription: concentration: 1 μM, replicates: in singlicate; n = 1
measurementType: %Inh (%)

INSERT INTO assay_data (compound, scaleunit, valuemeasured) VALUES
  ('COc1ccc(Nc2nccc(N3CCC(NC(=O)c4cccc(NC(C)=O)c4)C3)n2)cc1 (centres unmarked)', '%', 0),
  ('Fc1cccc(COc2ccc(Nc3ncnc4cc[nH]c34)cc2Cl)c1', '%', 22),
  ('CCC(CC)(CC)n1cnc2c(N)ncnc21', '%', 24),
  ('NC(=O)c1sc(-n2cnc3ccccc32)cc1OCc1ccccc1F', '%', 0),
  ('Nc1nc(-c2cccnc2)c(-c2ccnc3ccccc23)s1', '%', 0);
